- METHOD SUMMARY: in vivo
- ASSAY CONTEXT: rat, po, 3.35 mg/kg
ASSAY READOUT: AUC(0-inf) at 24 h (µM·h)
# unit: µM·h | format: bare number

Ask | What value of AUC(0-inf) at 24 h has been recorded for this entry: Cc1c(N2CC[C@@H](C3(N)CC3)C2)c(F)cc2cc(C(=O)O)c(=O)n(C3CC3)c12
Reply | 5.85

----------
- METHOD SUMMARY: physchem
Let's look at some compounds and their measured pKa.

COMPOUND	ASSAY READOUT	RESULT
C[C@H](N)[C@@H]1CCN(c2c(F)cc3cc(C(=O)O)c(=O)n4c3c2OC[C@@H]4C)C1	pKa	5
Cc1c(N2CCC(C3(N)CC3)C2)c(F)cc2c(Cc3noc(=O)[nH]3)cc(=O)n(C3CC3)c12 (stereo not drawn)	pKa	5.1

Below: the item to evaluate.
Ask | Field request: pKa | item: C[C@H]1COc2c(N3CC4CC(F)(F)C[C@@H](N)[C@H]4C3)c(F)cc3cc(C(=O)O)c(=O)n1c23 (single isomer, unassigned)
Reply | 5.1

----------
Listed next: entries and their corresponding logD.
- METHOD SUMMARY: physchem
- ASSAY CONTEXT: octanol/water, pH 7.4
Lab note: write the figure by itself, no unit.

Please review the entries below; each comes with its answer.
COMPOUND	logD
C[C@H]1COc2c(N3CC4C[C@@H](OC(F)F)C[C@@H](N)[C@H]4C3)c(F)cc3cc(C(=O)O)c(=O)n1c23 (single isomer, unassigned)	-0.4
C[C@H]1COc2c(N3CC4CC(F)(F)C[C@@H](N)[C@H]4C3)c(F)cc3cc(C(=O)O)c(=O)n1c23 (single isomer, unassigned)	-0.26
C[C@H]1COc2c(N3CCN(C)CC3)c(F)cc3cc(C(=O)O)c(=O)n1c23	-1.99
C[C@H]1COc2c(N3CC4[C@H](C3)[C@H](N)CCC4(F)F)c(F)cc3cc(C(=O)O)c(=O)n1c23 (single isomer, unassigned)	-0.78

Ask | Name the reported logD value associated with the compound C[C@H]1COc2c(N3CC[C@@H](C4(N)CCC4)C3)c(F)cc3cc(C(=O)O)c(=O)n1c23
Reply | -1.42

Ask | Check C[C@H]1COc2c(N3CC[C@@H](C4(N)CC4)C3)c(F)cc3cc(C(=O)O)c(=O)n1c23 too.
Reply | -0.9

Ask | Another compound: C[C@H]1CCc2c(N3CC[C@@H](C4(N)CC4)C3)c(F)cc3cc(C(=O)O)c(=O)n1c23
Reply | -0.27

Ask | Quick one: C[C@H]1COc2c(N3C[C@@H]4CCC[C@H](N)[C@H]4C3)c(F)cc3cc(C(=O)O)c(=O)n1c23
Reply | -1.03

Ask | Quick one: C[C@H]1Cc2c(N3CC[C@@H](C4(N)CC4)C3)c(F)cc3cc(C(=O)O)c(=O)n1c23
Reply | -0.51

Ask | How about C[C@H]1COc2c(N3C[C@@H]4CCCN[C@@H]4C3)c(F)cc3cc(C(=O)O)c(=O)n1c23 ?
Reply | -1.46

Ask | // next record C[C@H]1COc2c(N3CC[C@@H](C4(N)CC4)C3)cc(F)c3cc(C(=O)O)c(=O)n1c23
Reply | -0.4

Ask | Same question, Cc1c(N2CC[C@@H](C3(N)CC3)C2)c(F)cc2cc(Cc3n[nH]c(=O)o3)c(=O)n(C3CC3)c12 this time
Reply | 0.87

Ask | Ok, now C[C@H]1COc2c(N3CC[C@@H](C4(N)CC4)C3)c(C#N)cc3cc(C(=O)O)c(=O)n1c23
Reply | -1.77

Ask | Again, but for COc1cc2cc(C(=O)O)c(=O)n3c2c(c1N1CC[C@@H](C2(N)CC2)C1)OC[C@@H]3C
Reply | -1.22

----------
- METHOD SUMMARY: physchem
ASSAY READOUT: pKa
Give a plain numeric answer without units written out.

COMPOUND	pKa
C[C@H]1COc2c(N3CC4C[C@H](F)C[C@@H](N)[C@H]4C3)c(F)cc3cc(C(=O)O)c(=O)n1c23 (single isomer, unassigned)	5.07
Cc1c(N2CC[C@@H](C3(N)CC3)C2)c(F)cc2cc(C(=O)O)c(=O)n(C3CC3)c12	5.1
C[C@H]1COc2c(N3CC[C@@H](C4(N)CCC4)C3)c(F)cc3cc(C(=O)O)c(=O)n1c23	4.9
C[C@H]1COc2c(N3CC4[C@H](C3)[C@H](N)CCC4(F)F)c(F)cc3cc(C(=O)O)c(=O)n1c23 (single isomer, unassigned)	5.1
C[C@H]1COc2c(N3CC[C@@H](C4(N)CC4)C3)c(F)cc3cc(C(=O)O)c(=O)n1c23	4.9

Attention now turns to another entry.
Ask | Using the record for CO[C@@H]1CC[C@@H](N)[C@H]2CN(c3c(F)cc4cc(C(=O)O)c(=O)n5c4c3OC[C@@H]5C)CC12 (single isomer, unassigned) , report its pKa.
Reply | 4.9
